Test system: RARa:RXR (NR concentration 270 nM, RXRa partner concentration 90 nM)
testDetails: PBM binding z-score (relative to random genomic background probes); higher = stronger binding; sequences stand for … in GC…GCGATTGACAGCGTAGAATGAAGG
Would you kindly list PBM binding z-score for each of these sequences?

Data point: "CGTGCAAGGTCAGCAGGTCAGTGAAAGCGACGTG" ; PBM binding z-score = 4.71

Data point: "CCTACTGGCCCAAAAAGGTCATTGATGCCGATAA" ; PBM binding z-score = 5.65

Data point: "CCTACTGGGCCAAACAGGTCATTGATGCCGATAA" ; PBM binding z-score = 1.71

Data point: "TTACTAAGGTGAAAGGTCGTTGATGCACGCCTTG" ; PBM binding z-score = 6.79

Data point: "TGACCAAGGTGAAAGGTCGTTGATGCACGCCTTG" ; PBM binding z-score = 5.22

Data point: "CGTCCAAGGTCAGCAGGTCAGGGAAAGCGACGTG" ; PBM binding z-score = 5.33

Data point: "TCTAGTTGGTCAAAGGTTACACACTCGAAATGCG" ; PBM binding z-score = 4.79

Data point: "CAAACTAGGTCAACGTCAAAGTCGGTTTGTGCCA" ; PBM binding z-score = 2.38

Data point: "CCTAGCAGGCCAGTCTGGGTCACTCAAGGCTTGA" ; PBM binding z-score = 1.45

Data point: "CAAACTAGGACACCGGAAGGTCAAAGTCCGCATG" ; PBM binding z-score = 4.36

Data point: "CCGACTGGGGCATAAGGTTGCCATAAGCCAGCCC" ; PBM binding z-score = 0.0769

Data point: "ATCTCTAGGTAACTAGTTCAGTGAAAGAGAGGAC" ; PBM binding z-score = 0.382

Data point: "AGATTGAGGTTATACGTAGATCAGGGAAGAAAGT" ; PBM binding z-score = 1.7

Data point: "CCTACTGGGCCCTCAGGTCATTGATATCAACGTT" ; PBM binding z-score = 1.64

Data point: "TTACCAAGGTGAGCTGAGGTCATTGATCCAACTC" ; PBM binding z-score = 4.75

Data point: "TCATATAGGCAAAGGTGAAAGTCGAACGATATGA" ; PBM binding z-score = 2.02

Data point: "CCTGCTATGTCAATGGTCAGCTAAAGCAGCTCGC" ; PBM binding z-score = -0.142

Data point: "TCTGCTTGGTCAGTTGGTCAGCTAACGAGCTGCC" ; PBM binding z-score = -0.645

Data point: "CCTTACGGGTCACTGACAGGTTATAGAATTTGGA" ; PBM binding z-score = 4.32

Data point: "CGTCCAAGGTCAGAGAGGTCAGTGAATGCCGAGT" ; PBM binding z-score = 5.74

Data point: "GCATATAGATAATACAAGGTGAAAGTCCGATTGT" ; PBM binding z-score = 0.795

Data point: "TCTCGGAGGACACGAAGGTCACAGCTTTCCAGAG" ; PBM binding z-score = 3.8

Data point: "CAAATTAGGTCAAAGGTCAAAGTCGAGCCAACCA" ; PBM binding z-score = 8.95

Data point: "TCTGCTAGGTCAACGATAGTCAGCTAATCTGCTA" ; PBM binding z-score = 1.98

Data point: "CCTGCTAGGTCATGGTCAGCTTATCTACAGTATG" ; PBM binding z-score = 2.36

Data point: "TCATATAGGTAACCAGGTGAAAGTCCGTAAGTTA" ; PBM binding z-score = 1.06

Data point: "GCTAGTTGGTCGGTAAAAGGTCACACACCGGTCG" ; PBM binding z-score = 5.17

Data point: "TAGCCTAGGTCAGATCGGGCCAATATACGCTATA" ; PBM binding z-score = 1.9

Data point: "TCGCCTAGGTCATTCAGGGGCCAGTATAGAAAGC" ; PBM binding z-score = 3.36

Data point: "ATCTCTAGGTAAGAGTTCAGTGAATCCCGAGGAT" ; PBM binding z-score = 0.952

Data point: "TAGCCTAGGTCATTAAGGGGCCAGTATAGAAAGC" ; PBM binding z-score = 2.18

Data point: "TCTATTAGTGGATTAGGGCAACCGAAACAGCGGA" ; PBM binding z-score = 0.458

Data point: "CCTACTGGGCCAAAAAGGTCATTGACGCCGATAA" ; PBM binding z-score = 5.01

Data point: "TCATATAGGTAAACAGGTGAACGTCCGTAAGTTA" ; PBM binding z-score = 1.4

Data point: "CCTACTGGGCCATTTAGAGGTCATTGATCATATG" ; PBM binding z-score = 4.46

Data point: "AGAACGAGGGCAATGAGTTGATAGCGCGGGTGGC" ; PBM binding z-score = -0.0907

Data point: "CCTATTAGTTGACCATAAGGGCAACCTAAGCTCG" ; PBM binding z-score = 1.49

Data point: "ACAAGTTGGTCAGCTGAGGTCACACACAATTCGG" ; PBM binding z-score = 4.44

Data point: "CAAACTAGGTCAAGTGGTCAAAGTCCGCTTCCCG" ; PBM binding z-score = 3

Data point: "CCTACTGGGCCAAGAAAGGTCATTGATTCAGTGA" ; PBM binding z-score = 5.31

Data point: "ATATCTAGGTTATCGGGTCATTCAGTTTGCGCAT" ; PBM binding z-score = 3.87

Data point: "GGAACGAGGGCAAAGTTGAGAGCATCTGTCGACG" ; PBM binding z-score = 2.15

Data point: "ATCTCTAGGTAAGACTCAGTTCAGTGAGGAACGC" ; PBM binding z-score = 0.193

Data point: "ACTGGCAGGCCAAGGGTCACTCAAGATTAGTCCG" ; PBM binding z-score = 3.8

Data point: "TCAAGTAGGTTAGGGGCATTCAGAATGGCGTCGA" ; PBM binding z-score = 0.878

Data point: "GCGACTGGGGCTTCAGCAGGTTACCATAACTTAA" ; PBM binding z-score = 0.339

Data point: "TCATATAAGTAAAGGTGAAAGTCGAACGATATGA" ; PBM binding z-score = 1.59

Data point: "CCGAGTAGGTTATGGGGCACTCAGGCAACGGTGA" ; PBM binding z-score = 0.214

Data point: "TAGCCTAGTTCATGGGCCAGTATACCACGCGAAC" ; PBM binding z-score = 0.216

Data point: "TCTAGCAGGCCGGAGGGTCACTCAAGAGGTACGG" ; PBM binding z-score = 1.65

Data point: "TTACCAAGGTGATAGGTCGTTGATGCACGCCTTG" ; PBM binding z-score = 1.36
